target: human SK3 channel (hKCa2.3) (Homo sapiens); assay: Automated patch clamping (QPatch 16 HT whole-cell recordings); details: HEK-293 cells stably expressing hKCa2.3; currents measured at −80 mV; normalized to N-methyl bicuculline; read-out: IC50 in the Automated patch clamping assay (SK3 channel inhibition)
pIC50: −log10 of the molar value.
Assign pIC50 to each entry below.

Here's what some known entries look like.
CC(CO)(Nc1nc2c(Cn3ccsc3=N)cccc2[nH]1)c1ccc(F)c(Cl)c1 (single isomer, unassigned; (-)) [Example 32a]
> 6.00
CC(CO)(Nc1nc2c(CNc3ccon3)cccc2[nH]1)c1cccc(Cl)c1F (single isomer, unassigned) [Example 43a]
> 4.52
CC(CO)(Nc1nc2c(Cn3ccoc3=N)cccc2[nH]1)c1cc(F)cc(Cl)c1 (single isomer, unassigned) [Example 45a]
> 6.00
CC(CO)(Nc1nc2c(Cn3ccoc3=N)cccc2[nH]1)c1cccc(OC(F)(F)F)c1 (single isomer, unassigned; (+)) [Example 27a]
> 6.00
Cc1cn(Cc2cccc3[nH]c(NC(C)(CO)c4cccc(OC(F)(F)F)c4)nc23)c(=N)o1 (centres unmarked) [Example 30]
> 6.00

# batch: return pIC50 for each of the 8 molecules below
1. CC(CO)(Nc1nc2c(Cn3ccoc3=N)cccc2[nH]1)c1cc(Cl)ccc1F (single isomer, unassigned) [Example 47a]
2. CC(CO)(Nc1nc2c(Cn3ccoc3=N)cccc2[nH]1)c1cccc(Cl)c1 (centres unmarked) [Example 3]
3. Cc1oc(=N)n(Cc2cccc3[nH]c(NC(C)(CO)c4cccc(C(F)(F)F)c4)nc23)c1C (centres unmarked)
4. CC(CO)(Nc1nc2c(CNc3ncco3)cccc2[nH]1)c1cccc(Cl)c1F (single isomer, unassigned; (+)) [Example 42a]
5. COCC(C)(Nc1nc2c(Cn3ccoc3=N)cccc2[nH]1)c1ccc(F)c(Cl)c1 (centres unmarked)
6. Cn1ccnc1NCc1cccc2[nH]c(NC(C)(CO)c3cccc(C(F)(F)F)c3)nc12 (centres unmarked)
7. Cc1nnc(NCc2cccc3[nH]c(NC(C)(CO)c4ccc(F)c(Cl)c4)nc23)o1 (centres unmarked)
8. CC(CO)(Nc1nc2c(Cn3ccoc3=N)cccc2[nH]1)c1cccc(C(F)(F)F)c1 (centres unmarked) [Example 18]

Reply:
1: > 6.00; 2: > 6.00; 3: > 4.52; 4: > 4.52; 5: > 4.52; 6: > 4.52; 7: > 4.52; 8: > 6.00

Task item: Report pIC50 under test system human SK3 channel (hKCa2.3) (Homo sapiens) for CC(CO)(Nc1nc2c(Cn3ccoc3=N)cccc2[nH]1)c1cc(Cl)ccc1F (single isomer, unassigned; (+)) [Example 47b] .
Reply: > 4.52
